- ASSAY PROTOCOL: Compound was tested for volume distribution
- Assay type: ADME
- SETTINGS: rat; read-out: Volume distribution
MEASURE NAME: Vd (L)
Form entry: value (L) — number only.

Could you share which Vd value was measured for O=C1NC(=O)C(c2cnc3ccccn23)=C1c1cn2c3c(cc(F)cc13)CN(C(=O)N1CCCCC1)CC2 ?
1
